- Test system: mESC LDLR-Dup GFP reporter (SpCas9 MH-deletion repair)
- test.description: fraction of GFP+ cells relative to DMSO control (fold change); higher = more MH-deletion repair to in-frame LDLR (or more editing)
- condition.details: 2 µM; 7 days post-transfection
Quick reference for fraction of GFP+ cells among some compounds
metric: fraction of GFP+ cells

1. CCn1cc(C(=O)O)c(=O)c2cc(F)c(N3CCNCC3)cc21: 1.01
2. COc1cc2c(c(OC)c1OC)-c1c(cc3c(c1OC)OCO3)CC(C)C(C)C2 (stereo not drawn) [Schisandrin B (Sch B)]: 1.02
3. CC(C)=CCC[C@](C)(O)[C@H]1CC[C@]2(C)[C@@H]1[C@H](O)C[C@@H]1[C@@]3(C)CC[C@H](O)C(C)(C)[C@@H]3[C@@H](O)C[C@]12C [(20S)-Protopanaxatriol]: 1.02
